system: Mycobacterium tuberculosis variant bovis BCG; assay: Antimycobacterial activity against dormant stage of Mycobacterium bovis BCG ATCC 35734 measured on day 12 by nitrate reductase assay; type: functional, organism-based; conditions: ATCC 35734, 288 h
Reported MIC is given for each of the following compounds.
Give just the numeric value; µg/mL need not be written.

Before answering, review these 2 worked examples.
INSERT INTO assay_data (substance_smiles, value) VALUES
  ('Cc1ccccc1-c1nnc(-c2sc(-c3cccnc3)nc2C)o1', 4.91),
  ('Cc1nc(-c2cccnc2)sc1-c1nnc(-c2ccccc2Cl)o1', 4.77);

Attention now shifts to the item below.
Record Cc1nc(-c2cccnc2)sc1-c1nnc(-c2cccnc2)o1 . Reported MIC: 94.9

* * *

system: Mycobacterium tuberculosis variant bovis BCG; assay: Antimycobacterial activity against dormant stage of Mycobacterium bovis BCG ATCC 35734 measured on day 12 by nitrate reductase assay; format: functional, organism-based; conditions: ATCC 35734, 288 h
measurement-kind: MIC (µg/mL)
Give just the numeric value; µg/mL need not be written.

INSERT INTO assay_data (substance_smiles, measurement_kind, result_unit, value) VALUES
  ('Cc1nc(-c2cccnc2)sc1-c1nnc(-c2ccncc2)o1', 'MIC', 'µg/mL', 42.2);

Record CO[C@H]1/C=C/O[C@@]2(C)Oc3c(C)c(O)c4c(O)c(c(/C=N/N5CCN(C)CC5)c(O)c4c3C2=O)NC(=O)/C(C)=C\C=C\[C@H](C)[C@H](O)[C@@H](C)[C@@H](O)[C@@H](C)[C@H](OC(C)=O)[C@@H]1C . Reported MIC: 0.05

* * *

Reported log10(IC50) is given for each of the following molecules.
test system: Mycobacterium tuberculosis variant bovis BCG; experiment: Antimycobacterial activity against dormant stage of Mycobacterium bovis BCG ATCC 35734 measured on day 12 by nitrate reductase assay; type: functional, organism-based; settings: ATCC 35734, 288 h
Reminder: these figures are log10 of reported IC50, in µg/mL before transformation.

INSERT INTO results (substance_smiles, value) VALUES
  ('Cc1nc(-c2cccnc2)sc1-c1nnc(-c2ccccc2Cl)o1', 0.17);

Record Cc1nc(-c2cccnc2)sc1-c1nnc(Cc2ccccc2)o1 . Reported log10(IC50): 0.72

Record Cc1nc(-c2cccnc2)sc1-c1nnc(-c2ccc([N+](=O)[O-])cc2)o1 . Reported log10(IC50): 1.40

Record Cc1nc(-c2cccnc2)sc1-c1nnc(-c2cccnc2)o1 . Reported log10(IC50): 1.75

Record Cc1nc(-c2cccnc2)sc1-c1nnc(-c2ccccc2[N+](=O)[O-])o1 . Reported log10(IC50): 0.55

Record CO[C@H]1/C=C/O[C@@]2(C)Oc3c(C)c(O)c4c(O)c(c(/C=N/N5CCN(C)CC5)c(O)c4c3C2=O)NC(=O)/C(C)=C\C=C\[C@H](C)[C@H](O)[C@@H](C)[C@@H](O)[C@@H](C)[C@H](OC(C)=O)[C@@H]1C . Reported log10(IC50): -2.57

* * *

test system: Mycobacterium tuberculosis variant bovis BCG; assay: Antimycobacterial activity against dormant stage of Mycobacterium bovis BCG ATCC 35734 measured on day 12 by nitrate reductase assay; type: functional, organism-based; conditions: ATCC 35734, 288 h
measurement-kind: IC50 (µg/mL)
Give just the numeric value; µg/mL need not be written.

Given the molecule COc1ccccc1-c1nnc(-c2sc(-c3cccnc3)nc2C)o1 and test system Mycobacterium tuberculosis variant bovis BCG, the measured IC50 is 1.8

Given the molecule Cc1ccccc1-c1nnc(-c2sc(-c3cccnc3)nc2C)o1 and test system Mycobacterium tuberculosis variant bovis BCG, the measured IC50 is 1.44

Given the molecule Cc1nc(-c2cccnc2)sc1-c1nnc(-c2ccncc2)o1 and test system Mycobacterium tuberculosis variant bovis BCG, the measured IC50 is 28

Given the molecule Cc1ccc(-c2nnc(-c3sc(-c4cccnc4)nc3C)o2)cc1 and test system Mycobacterium tuberculosis variant bovis BCG, the measured IC50 is 15.2
